Data credit: patent US12503438B2

# assay-target: KDR (Homo sapiens, UniProt P35968)
# Sequence (P35968 20-1356): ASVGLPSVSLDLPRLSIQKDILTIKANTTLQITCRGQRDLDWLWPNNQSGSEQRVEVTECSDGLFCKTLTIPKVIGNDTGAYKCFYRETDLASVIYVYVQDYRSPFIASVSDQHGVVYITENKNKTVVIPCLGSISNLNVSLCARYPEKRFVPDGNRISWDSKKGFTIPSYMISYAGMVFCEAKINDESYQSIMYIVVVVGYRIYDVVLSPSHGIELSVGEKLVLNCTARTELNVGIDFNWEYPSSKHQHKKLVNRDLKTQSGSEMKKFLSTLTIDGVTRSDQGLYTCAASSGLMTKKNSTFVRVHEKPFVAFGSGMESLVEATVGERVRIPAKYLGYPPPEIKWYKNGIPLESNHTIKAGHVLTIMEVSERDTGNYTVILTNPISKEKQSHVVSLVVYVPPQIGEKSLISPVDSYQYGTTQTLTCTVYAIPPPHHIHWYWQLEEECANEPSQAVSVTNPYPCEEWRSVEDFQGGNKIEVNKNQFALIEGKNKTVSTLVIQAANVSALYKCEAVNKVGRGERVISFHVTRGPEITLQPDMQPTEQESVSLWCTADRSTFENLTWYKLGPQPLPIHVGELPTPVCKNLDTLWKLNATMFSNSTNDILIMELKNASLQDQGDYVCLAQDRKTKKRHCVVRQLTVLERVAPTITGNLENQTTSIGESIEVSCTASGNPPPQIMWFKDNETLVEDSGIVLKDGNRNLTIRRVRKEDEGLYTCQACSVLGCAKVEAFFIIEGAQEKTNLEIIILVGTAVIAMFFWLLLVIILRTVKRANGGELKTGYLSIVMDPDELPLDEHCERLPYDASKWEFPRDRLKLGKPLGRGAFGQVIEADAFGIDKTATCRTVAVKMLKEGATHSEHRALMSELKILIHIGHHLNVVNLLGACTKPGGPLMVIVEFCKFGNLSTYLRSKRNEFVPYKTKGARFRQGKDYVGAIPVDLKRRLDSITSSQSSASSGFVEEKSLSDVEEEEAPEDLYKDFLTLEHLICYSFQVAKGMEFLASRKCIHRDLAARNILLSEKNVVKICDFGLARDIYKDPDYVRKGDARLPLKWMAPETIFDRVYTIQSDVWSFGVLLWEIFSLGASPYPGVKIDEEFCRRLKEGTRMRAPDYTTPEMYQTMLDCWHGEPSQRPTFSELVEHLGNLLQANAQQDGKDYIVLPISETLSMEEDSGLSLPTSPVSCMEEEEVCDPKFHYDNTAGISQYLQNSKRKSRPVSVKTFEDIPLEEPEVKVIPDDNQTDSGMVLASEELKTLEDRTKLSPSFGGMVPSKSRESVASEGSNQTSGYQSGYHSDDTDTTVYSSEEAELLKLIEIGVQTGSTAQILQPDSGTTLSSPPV
# assay-summary: KDR autophosphorylation ELISA in HUVEC cells
# Format: cell-based
# Set-up: endogenous in cells; host or cells: HUVEC (Lonza #C2519A)
# applied-conditions: cellular activity, VEGF165-stimulated, phospho-KDR ELISA
outcome-measure: IC50

Use these answered entries as a reference point.
{"columns": ["molecular-string", "IC50"],
 "data": [
  ["Nc1cc(-c2ccc3c(Oc4ccc(NC(=O)C5(C(=O)Nc6ccc(F)cc6)CC5)cc4)ccnc3c2)ccn1", "10 to 100 nM"],
  ["Cn1ncc(-c2ccc3c(Oc4ccc(NC(=O)C5(C(=O)Nc6ccc(F)cc6)CC5)cc4)ccnc3c2)n1", "≤ 10 nM"],
  ["Cc1cc2c(Oc3cc(F)c(NC(=O)C4(C(=O)Nc5ccc(F)cc5)CC4)cc3F)ccnc2cc1-c1ncc[nH]1", "10 to 100 nM"],
  ["O=C(Nc1ccc(F)cc1)C1(C(=O)Nc2ccc(Oc3ccnc4cc(-c5cnn(CC(F)(F)F)c5)ccc34)cc2)CC1", "≤ 10 nM"]
]}

// returns reported IC50 for input O=C(Nc1ccc(F)cc1)C1(C(=O)Nc2ccc(Oc3ccnc4cc(-c5cnn(C6COC6)c5)ccc34)cc2)CC1 ≤ 10 nM

// returns reported IC50 for input O=C(Nc1ccc(F)cc1)C1(C(=O)Nc2cc(F)c(Oc3ccnc4cc(-c5cccnc5)ccc34)cc2F)CC1 ≤ 10 nM

// returns reported IC50 for input O=C(Nc1ccc(F)cc1)C1(C(=O)Nc2ccc(Oc3ccnc4cc(-c5ccncc5)ccc34)cc2)CC1 ≤ 10 nM

* * *

# assay-target: Human Mer (Homo sapiens, UniProt Q12866)
# Construct: Human Mer (residues R557-E882 with H628Q and R794A, 0.7 nM)
# Sequence (Q12866 557-882 limits assumed): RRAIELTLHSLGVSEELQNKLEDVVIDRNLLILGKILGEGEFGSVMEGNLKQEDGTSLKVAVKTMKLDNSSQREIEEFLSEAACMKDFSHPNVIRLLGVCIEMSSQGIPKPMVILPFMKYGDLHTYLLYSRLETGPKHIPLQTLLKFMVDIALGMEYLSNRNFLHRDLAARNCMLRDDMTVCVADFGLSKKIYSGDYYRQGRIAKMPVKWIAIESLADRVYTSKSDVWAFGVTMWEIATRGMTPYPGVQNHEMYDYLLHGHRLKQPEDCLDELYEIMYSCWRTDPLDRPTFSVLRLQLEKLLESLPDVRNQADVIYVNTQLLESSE
# assay-summary: Human Mer kinase assay (33P-phosphoryl transfer radiometric, KinaseProfiler)
# applied-conditions: biochemical activity; 10 μM ATP
pIC50: −log10 of the molar value.
This section presents compounds with their documented pIC50 values.

{"columns": ["molecular-string", "pIC50"],
 "data": [
  ["COc1cc2c(Oc3ccc(NC(=O)C4(C(=O)Nc5ccc(F)cc5)CC4)cc3)ccnc2cc1-c1cnn(C)c1", "≥ 8.00"],
  ["C[Si](C)(C)C#Cc1ccc2c(Oc3ccc(NC(=O)C4(C(=O)Nc5ccc(F)cc5)CC4)cc3)ccnc2c1", "6.00 to 7.00"]
]}

// returns reported pIC50 for input O=C(Nc1ccc(F)cc1)C1(C(=O)Nc2ccc(Oc3ccnc4cc(-c5cnn(CCO)c5)ccc34)cc2)CC1 ≥ 8.00

// returns reported pIC50 for input O=C(Nc1ccc(F)cc1)C1(C(=O)Nc2ccc(Oc3ccnc4cc(-c5cnn(C6CCNCC6)c5)ccc34)cc2)CC1 ≥ 8.00
